# Test system: B. tabaci
# test.description: Correlation of identified headspace volatiles with whitefly repellence ranking (stepwise linear regression, MANOVA)
# Set-up: species or system Bemisia tabaci biotype Q
# test.conditions: first Table 5
result.type: Effect (semiochemical associated to B. tabaci repellence or attraction)

{"compound": "CC(C)=CCC[C@H](C)c1ccc(C)cc1", "reported.measurement": "repellence"}
{"compound": "CC1=CCC(C(C)C)=CC1", "reported.measurement": "repellence"}
{"compound": "C=C1C=CC(C(C)C)CC1 (stereo not shown)", "reported.measurement": "attraction"}
{"compound": "Cc1ccc(C(C)C)cc1", "reported.measurement": "repellence"}
{"compound": "C=C(C)[C@H]1CC=C(C)CC1", "reported.measurement": "attraction"}

Effect (semiochemical associated to B. tabaci repellence or attraction) recorded for this compound, `CC(C)=CCC[C@@H](C)c1ccc(C)cc1` , is repellence

Effect (semiochemical associated to B. tabaci repellence or attraction) recorded for this compound, CC(C)=CCC[C@@H](C)[C@@H]1C=CC(C)=CC1 [7-epi-zingiberene] , is repellence

Effect (semiochemical associated to B. tabaci repellence or attraction) recorded for this compound, CC1=CC2C(CC1)C2(C)C (stereo not shown) , is attraction

Effect (semiochemical associated to B. tabaci repellence or attraction) recorded for this compound, `C=CC(=C)CCC=C(C)C` , is repellence

Effect (semiochemical associated to B. tabaci repellence or attraction) recorded for this compound, `CC(C)=CCC[C@H](C)[C@@H]1C=CC(C)=CC1` , is repellence

###

# System: B. tabaci antennae
# test.description: Electroantennography (EAG)
# Set-up: species or system Bemisia tabaci
# test.conditions: responses of B. tabaci antennae
Values of antennal response greater than or equal to 4 mV map to 1; values below map to -1.

Consider the following illustrative entries.
{"compound": "C=C(C)[C@H]1CC=C(C)CC1 [limonene]", "measured.target": "B. tabaci antennae", "classification": -1}
{"compound": "CC1=CCC(C(C)C)C=C1 (stereo not drawn) [Alpha-phellandrene]", "measured.target": "B. tabaci antennae", "classification": -1}
{"compound": "C=C1C=CC(C(C)C)CC1 (stereo not drawn) [beta-phellandrene]", "measured.target": "B. tabaci antennae", "classification": -1}

Read the next record carefully.
Entry CC(C)=CCC[C@@H](C)c1ccc(C)cc1 [R-curcumene] : is its antennal response no less than 4 mV?
1

###

antennal response overview
# Test system: B. tabaci antennae
# test.description: Electroantennography (EAG)
# Parameters: species or system Bemisia tabaci
# test.conditions: responses of B. tabaci antennae
Enter your answer as a number in mV; do not include the unit.

{"molecule": "CC1=CC2C(CC1)C2(C)C (stereo not drawn) [2-carene]", "measured.target": "B. tabaci antennae", "result.type": "antennal response", "reported.measurement": 3.9}

Now examine the next entry.
antennal response recorded for this molecule, CC1=CC=C(C(C)C)CC1 [Alpha-terpinene] , is 4.1
